This listing pairs molecules with measured melting point.
readout_name: melting point

molecule_smiles	readout_value
O=C(OCc1ccccn1)c1cccc(-n2cnc3cc(-c4ccccc4)ccc32)c1	149 to 150 °C
COc1cc(N)c(S(C)(=O)=O)cc1C(=O)O	178 to 180 °C
Cc1c(-c2ccccc2)oc2c(CSCCCl)cccc2c1=O	82 to 83 °C
O=C(NCC1(c2ccccc2)CCCC1)N1CCC(Sc2ccc(CCNC[C@H](O)COc3ccc(O)cc3)cc2)CC1	132 °C
COc1cc(CO)ccc1OCc1nc(-c2cccnc2)oc1C	117 to 118 °C
CC(C)(C)OC(=O)c1[nH]c2cc(Cl)cc(Cl)c2c1C=C1CON(c2ccccc2)C1=O	120 °C
CCNS(=O)(=O)Oc1cc(C(C)(C)C)c(SC2=C(O)CC(CCc3ccc(N)cc3)(CCc3ccc(N)cc3)OC2=O)cc1C	194 °C
Cc1cc(OC(F)F)nc(N)n1	136 to 137 °C
CCOC(=O)c1cnc2n(CC)c3ccccc3n2c1=O	118 to 120 °C

---

This listing pairs compounds with measured melting point.

compound	melting point
Cc1cc(C)cc(COC2CCC(N)(c3ccccc3)C(OCc3cc(C)cc(C)c3)C2)c1 (stereo not given)	103 to 105 °C
Cc1ccc(S(=O)(=O)NC(=O)Nc2ccc(Cl)cc2)cc1	174 to 176 °C
CC(C)(C)OC(=O)N1CC(c2ccc(N=C(c3ccccc3)c3ccccc3)nc2)C1	104 to 105 °C
CCCc1c(C(=O)NCc2ccc3cc(O)ccc3c2)cnn1-c1ccccc1	189 to 190 °C
O=C(Nc1n[nH]c2cc(Cl)ccc12)c1ccccn1	177 °C
O=C(O)C1(c2ccccc2)CCCCC1	118 to 121 °C
Oc1ccc2c(c1O)OCC(c1cccc(C(F)(F)F)c1)C2 (stereo not given)	99 to 100 °C
Cc1cccc(NC(=O)NCC(=O)N2[C@@H](c3ccccc3)CC[C@H]2c2ccccc2)c1	168 °C
CC(CN(C)C)CC(CNC(=O)N(CCCl)N=O)(c1ccccc1)c1ccccc1 (stereo not given)	105 to 107 °C
N#Cc1c(N2CCN(C(=O)c3cccs3)CC2)c2cc(Cl)ccc2n(Cc2ccc(F)cc2)c1=O	253 °C

---

readout_name: melting point

molecule_smiles	readout_value
CC(C)(O)Cn1c(CO)nc2c(N)nc3cccnc3c21	235 to 237 °C
C#CCN1CCCc2ccc(OC(=O)Nc3c(C)cccc3C(C)C)cc21	120 °C
COc1ccc(-c2cc(Cl)c3c(Cl)c(O)ccc3c2)cc1	132 to 134 °C
CCCN1CCN(c2ccc(C(C)=O)cc2)CC1	68 to 70 °C
CCCOC(=O)N1CCN(C(=O)c2cc(S(=O)(=O)N(C)C)ccc2N)CC1	174 to 176 °C

---

This listing pairs compounds with measured melting point.
readout_name: melting point

compound	readout_name	readout_value
O=C1C[C@@H](O)C[C@H](/C=C/c2c(Cl)cc(Cl)cc2Oc2ccccc2)O1 (relative stereo)	melting point	124 to 126 °C
CCOC(=O)CCCn1c(C(=O)O)cc2cc(C)ccc21	melting point	142 °C
O=C(Nc1ccc(F)c(NC(=S)Nc2cccc(C(F)(F)F)c2)c1)c1ccc(Cl)c(Cl)c1	melting point	172 to 174 °C
CN(C)c1nc(Cl)nc(NCC(F)(F)F)n1	melting point	181 to 184 °C
CCCn1cc2c(C3C(=O)Nc4ccc(C#N)cc43)nc(Cl)nc2n1 (configuration not stated)	melting point	> 300 °C
O=C(NCCCCSc1ccncc1)c1ccccc1O	melting point	83 to 85 °C
CCOC(=O)C(=NO)c1c[nH]c2c(CC)cccc12	melting point	167 to 169 °C
CC1CCCCN1c1ccc([N+](=O)[O-])cc1C(=O)c1ccc(Cl)cc1 (configuration not stated)	melting point	142 °C
COC(=O)c1cc(C(C)Br)cnc1C1=NC(C)(C(C)C)C(=O)N1 (configuration not stated)	melting point	123 to 126 °C
O=C(NC(C(=O)O)c1ccc2c(c1)CCO2)OCc1ccccc1 (configuration not stated)	melting point	121 to 123 °C
CN1C(=O)[C@H](NC(=O)CCc2cccc(C#N)c2)N=C(c2ccccc2)c2ccccc21	melting point	110 to 112 °C
O=C(NO)C1(S(=O)(=O)c2ccc(OCc3ccccc3)cc2)CCN(Cc2ccccc2)CC1	melting point	89 °C
COc1ccc2c(c1O)NC(OC)C1CCCN1C2=O (configuration not stated)	melting point	154 to 156 °C
COc1ccc(-c2c(C)ccn2N2C(=O)c3ccccc3C2=O)c(Cl)c1	melting point	202 to 208 °C
ClC1=Nc2ccccc2Sc2c1csc2Cl	melting point	163 to 165 °C
COC(=O)Nc1nc2cc(C(c3ccc(F)cc3)n3cncn3)ccc2[nH]1 (configuration not stated)	melting point	250 °C
Cc1nc(N)sc1S(=O)(=O)NC(C)(C)CO	melting point	146 °C
FC(F)(F)Sc1c(-c2ccc(Cl)cc2)[nH]c(C(F)(F)F)c1Br	melting point	87 to 88.5 °C
CCCSc1ccc(NS(=O)(=O)c2cccs2)c2[nH]c(C(=O)OCC)cc12	melting point	150 to 151 °C
CCOC(=O)Cn1nnnc1C(=O)c1ccccc1	melting point	63 to 67 °C
O=C(O)CCC(=O)c1cc(Br)cc(Br)c1	melting point	137 to 138 °C
CN(C)C=NS(=O)(=O)c1cc(CCNC(=O)C(F)(F)F)ccc1O	melting point	160 to 161 °C
CCN1CCN(C)C[C@@H](NC(=O)c2cc(Br)c(NC)nc2OC)C1	melting point	52 to 55 °C
O=C(c1ccccc1)c1cccc2c1SCC2C(=O)O (configuration not stated)	melting point	153 to 156 °C
CN(C)C(=Cc1ccccc1[N+](=O)[O-])C(=O)CN1C(=O)c2ccccc2C1=O	melting point	230 to 233 °C
CCN(CC)CCNC(=O)c1cccc2c(=O)cc(-c3ccc([N+](=O)[O-])cc3)oc12	melting point	207 to 209 °C
C#CCN(c1ccc(C(=O)NC(CCCCCC(=O)O)C(=O)O)cc1)C1CCc2cc3nc(C)[nH]c(=O)c3cc21 (configuration not stated)	melting point	186 °C
Clc1ccc(-c2nc3n(c2Br)CCS3)c(Cl)c1	melting point	200 to 202 °C
COc1ccccc1N1CCN(CCOc2ccc(-c3cn4ccccc4n3)cc2)CC1	melting point	151 to 153 °C
ICC1COc2ccccc2O1 (configuration not stated)	melting point	38 to 40 °C
CN1C=CC2=C(C=CCC2)CC1=O	melting point	81 to 82 °C
O=C(CCCc1cccnc1)N1CCC(CC(c2ccccc2)c2ccccc2)CC1	melting point	98 to 100 °C
Nc1sc2c(c1C(=O)c1cccs1)CCN(Cc1ccccc1)C2	melting point	122 to 123 °C
Cc1sc(N)c(C(=O)c2ccccn2)c1C	melting point	136 to 139 °C
COc1cc(C2(C=O)C=CC=CC2)ccc1OCCCBr (configuration not stated)	melting point	88 to 89 °C
CCOC(=O)c1ccc(COc2ccc3c(c2)C(C)(C)CCC3(C)C)cc1	melting point	76 to 77 °C
O=C1NCC(CCc2ccccc2Cl)O1 (configuration not stated)	melting point	74 to 75 °C
CCCC(=O)Nc1n[nH]c2cc(Cl)ccc12	melting point	230 °C
CC#CCOc1ccc(S(=O)(=O)NC(C(=O)NO)c2ccc(OCCN3CCCC3)cc2)cc1 (configuration not stated)	melting point	70 °C
Cn1nc(N)c2c(F)cccc21	melting point	125 to 127 °C
Cc1nnc(-c2cc3cccc(NS(=O)(=O)c4cccs4)c3[nH]2)s1	melting point	308 to 309 °C
CC1=C(C(=O)OC(C)(C)C)C(c2ccc(Br)cc2)C(C(=O)OC(C)(C)C)=C(C)N1	melting point	206 to 207 °C
